// provenance: paper PMC10202811

Assay: Plasma pharmacokinetics of lorlatinib at steady state (LC-MS/MS, non-compartmental analysis)
Assay type: in vivo, human
Conditions: human, plasma, oral, 100 mg, Cycle 1 Day 1; Cohort A2; 100 mg per dose; individual patients

{"Input Smiles": "C[C@H]1Oc2cc(cnc2N)-c2c(nn(C)c2C#N)CN(C)C(=O)c2ccc(F)cc21", "Measurement Units": "h", "MRT last": 12.4}

----------
Assay: Plasma pharmacokinetics of lorlatinib at steady state (LC-MS/MS, non-compartmental analysis)
Type: in vivo, human
Conditions: human, plasma, oral, 100 mg, steady state; Cohort A2; 100 mg QD; read-out: Tmax
Recorded Endpoint: Tmax (h)

{"Input Smiles": "C[C@H]1Oc2cc(cnc2N)-c2c(nn(C)c2C#N)CN(C)C(=O)c2ccc(F)cc21", "Recorded Endpoint": "Tmax", "Numeric Readout": 2}

----------
Experiment: Plasma pharmacokinetics of lorlatinib at steady state (LC-MS/MS, non-compartmental analysis)
Assay type: in vivo, human
Settings: Cycle 1 Day 15; Cohort A1; 75 mg/m2 per dose; individual patients; unit assumed

{"Compound": "C[C@H]1Oc2cc(cnc2N)-c2c(nn(C)c2C#N)CN(C)C(=O)c2ccc(F)cc21 [Lorlatinib]", "Tlag": "0 h"}

----------
Experiment: Plasma pharmacokinetics of lorlatinib at steady state (LC-MS/MS, non-compartmental analysis)
Format: in vivo, human
Settings: human, plasma, oral, 75 mg/m2, Cohort A1, 75 mg/m2 per dose, C1D15, Median, N 3; read-out: Tmax
Recorded Endpoint: Tmax (h)

{"Input Smiles": "C[C@H]1Oc2cc(cnc2N)-c2c(nn(C)c2C#N)CN(C)C(=O)c2ccc(F)cc21", "Measurement Units": "h", "Numeric Readout": 2}

----------
Experiment: Plasma pharmacokinetics of lorlatinib at steady state (LC-MS/MS, non-compartmental analysis)
Type: in vivo, human
Conditions: human, in vivo, 115 mg/m2, Cycle 1 Day 15; patient N0773; Cohort B2; 115 mg/m2 per dose; Dose 75; read-out: AUCall
Source text: Lorlatinib was isolated from human plasma by a liquid-iquid extraction procedure. […] A linear-log trapezoidal method was used [NT] A best-fit method was used to estimate terminal elimination and to extrapolate any plasma concentration versus time profiles to compute [NT].

{"Input Smiles": "C[C@H]1Oc2cc(cnc2N)-c2c(nn(C)c2C#N)CN(C)C(=O)c2ccc(F)cc21", "AUC (ng·h/mL)": 5370}

----------
Experiment: Plasma pharmacokinetics of lorlatinib at steady state (LC-MS/MS, non-compartmental analysis)
Assay type: in vivo, human
Conditions: Cycle 1 Day 1, Cohort A1, 115 mg/m2 per dose
Recorded Endpoint: Tlast (h)

{"Input Smiles": "C[C@H]1Oc2cc(cnc2N)-c2c(nn(C)c2C#N)CN(C)C(=O)c2ccc(F)cc21", "Recorded Endpoint": "Tlast", "Numeric Readout": 24}

----------
Test: Plasma pharmacokinetics of lorlatinib at steady state (LC-MS/MS, non-compartmental analysis)
Format: in vivo, human
Settings: human, in vivo, 115 mg/m2, Cycle 1 Day 1; Cohort A1; 115 mg/m2 per dose; individual patients; read-out: Tmax

{"Input Smiles": "C[C@H]1Oc2cc(cnc2N)-c2c(nn(C)c2C#N)CN(C)C(=O)c2ccc(F)cc21", "Tmax [h]": 2}

----------
Assay: Plasma pharmacokinetics of lorlatinib at steady state (LC-MS/MS, non-compartmental analysis)
Type: in vivo, human
Settings: Cycle 1 Day 15; patient N0773; Cohort B2; 115 mg/m2 per dose; Dose 75
Recorded Endpoint: Tlast (h)

{"Molecule": "C[C@H]1Oc2cc(cnc2N)-c2c(nn(C)c2C#N)CN(C)C(=O)c2ccc(F)cc21 [Lorlatinib]", "Recorded Endpoint": "Tlast", "Numeric Readout": 6}

----------
Assay: Plasma pharmacokinetics of lorlatinib at steady state (LC-MS/MS, non-compartmental analysis)
Format: in vivo, human
Details: human, plasma, oral, 60 mg/m2, Cycle 1 Day 15; Cohort A1; 60 mg/m2 per dose; individual patients; read-out: Tmax

{"Input Smiles": "C[C@H]1Oc2cc(cnc2N)-c2c(nn(C)c2C#N)CN(C)C(=O)c2ccc(F)cc21", "Tmax [h]": 2}

----------
Test: Plasma pharmacokinetics of lorlatinib at steady state (LC-MS/MS, non-compartmental analysis)
Format: in vivo, human
Conditions: human, in vivo, 115 mg/m2, Cycle 1 Day 15; Cohort A1; 115 mg/m2 per dose; individual patients; read-out: Cmax

{"Input Smiles": "C[C@H]1Oc2cc(cnc2N)-c2c(nn(C)c2C#N)CN(C)C(=O)c2ccc(F)cc21", "Measurement Units": "ng/mL", "Cmax": 1350}

----------
Test: Plasma pharmacokinetics of lorlatinib at steady state (LC-MS/MS, non-compartmental analysis)
Format: in vivo, human
Conditions: human, in vivo, 115 mg/m2, Cycle 1 Day 15; patient N0773; Cohort B2; 115 mg/m2 per dose; Dose 75; read-out: Cmax
Recorded Endpoint: Cmax

{"Input Smiles": "C[C@H]1Oc2cc(cnc2N)-c2c(nn(C)c2C#N)CN(C)C(=O)c2ccc(F)cc21", "Recorded Endpoint": "Cmax", "Result": "1780 ng/mL"}

----------
Assay: Plasma pharmacokinetics of lorlatinib at steady state (LC-MS/MS, non-compartmental analysis)
Type: in vivo, human
Conditions: human, in vivo, 115 mg/m2, Cycle 1 Day 1; patient N0773; Cohort B2; 115 mg/m2 per dose; Dose 75; read-out: AUCall

{"Input Smiles": "C[C@H]1Oc2cc(cnc2N)-c2c(nn(C)c2C#N)CN(C)C(=O)c2ccc(F)cc21", "Measurement Units": "ng·h/mL", "AUC": 10800}

----------
Experiment: Plasma pharmacokinetics of lorlatinib at steady state (LC-MS/MS, non-compartmental analysis)
Assay type: in vivo, human
Conditions: Cycle 1 Day 15, Cohort B2, 95 mg/m2 per dose; unit assumed

{"Compound": "C[C@H]1Oc2cc(cnc2N)-c2c(nn(C)c2C#N)CN(C)C(=O)c2ccc(F)cc21 [Lorlatinib]", "Tlag (h)": 0}

----------
Assay: Plasma pharmacokinetics of lorlatinib at steady state (LC-MS/MS, non-compartmental analysis)
Type: in vivo, human
Conditions: Cycle 1 Day 15, Cohort B2, 115 mg/m2 per dose

{"Compound": "C[C@H]1Oc2cc(cnc2N)-c2c(nn(C)c2C#N)CN(C)C(=O)c2ccc(F)cc21 [Lorlatinib]", "Tlast": "24 h"}

----------
Experiment: Plasma pharmacokinetics of lorlatinib at steady state (LC-MS/MS, non-compartmental analysis)
Assay type: in vivo, human
Settings: human, in vivo, 115 mg/m2, Cohort A1, 115 mg/m2 per dose, C1D15, Geometric Mean, N 6; read-out: Cmax
From the text: Lorlatinib was isolated from human plasma by a liquid-iquid extraction procedure. […] A linear-log trapezoidal method was used [NT] A best-fit method was used to estimate terminal elimination and to extrapolate any plasma concentration versus time profiles to compute [NT].
Recorded Endpoint: Cmax (ng/mL)

{"Input Smiles": "C[C@H]1Oc2cc(cnc2N)-c2c(nn(C)c2C#N)CN(C)C(=O)c2ccc(F)cc21", "Measurement Units": "ng/mL", "Numeric Readout": 1210}

----------
Assay: Plasma pharmacokinetics of lorlatinib at steady state (LC-MS/MS, non-compartmental analysis)
Format: in vivo, human
Settings: human, plasma, oral, 45 mg/m2, Cycle 1 Day 1; Cohort A1; 45 mg/m2 per dose; individual patients

{"Input Smiles": "C[C@H]1Oc2cc(cnc2N)-c2c(nn(C)c2C#N)CN(C)C(=O)c2ccc(F)cc21", "MRT last, h": 7.18}

----------
Experiment: Plasma pharmacokinetics of lorlatinib at steady state (LC-MS/MS, non-compartmental analysis)
Assay type: in vivo, human
Conditions: human, in vivo, 115 mg/m2, Cycle 1 Day 15, Cohort A1, 115 mg/m2 per dose; read-out: MRTINF_pred

{"Input Smiles": "C[C@H]1Oc2cc(cnc2N)-c2c(nn(C)c2C#N)CN(C)C(=O)c2ccc(F)cc21", "MRT inf": "11.7 h"}

----------
Assay: Plasma pharmacokinetics of lorlatinib at steady state (LC-MS/MS, non-compartmental analysis)
Format: in vivo, human
Conditions: Cycle 1 Day 1, Cohort A1, 115 mg/m2 per dose; unit assumed
Recorded Endpoint: Tlag

{"Input Smiles": "C[C@H]1Oc2cc(cnc2N)-c2c(nn(C)c2C#N)CN(C)C(=O)c2ccc(F)cc21", "Recorded Endpoint": "Tlag", "Result": "0 h"}

----------
Experiment: Plasma pharmacokinetics of lorlatinib at steady state (LC-MS/MS, non-compartmental analysis)
Assay type: in vivo, human
Settings: human, plasma, oral, 60 mg/m2, Cycle 1 Day 15; Cohort A1; 60 mg/m2 per dose; individual patients; read-out: Cmax

{"Input Smiles": "C[C@H]1Oc2cc(cnc2N)-c2c(nn(C)c2C#N)CN(C)C(=O)c2ccc(F)cc21", "Measurement Units": "ng/mL", "Cmax": 623}

----------
Assay: Plasma pharmacokinetics of lorlatinib at steady state (LC-MS/MS, non-compartmental analysis)
Assay type: in vivo, human
Settings: human, plasma, oral, 150 mg, Cycle 1 Day 15; Cohort A2; 150 mg per dose; individual patients; read-out: MRTINF_pred

{"Input Smiles": "C[C@H]1Oc2cc(cnc2N)-c2c(nn(C)c2C#N)CN(C)C(=O)c2ccc(F)cc21", "MRT inf (h)": 16.7}
